src = paper PMC5869419

System: H3N2 influenza virus A/Hong Kong/68 (HK/68)
Assay: CPE inhibition assay with HK/68 in MDCK cells
Format: cell-based
Conditions: Influenza A virus, H3N2; HK/68 and Jena/8178 together, CPE inhibition in MDCK cells; read-out: IC50 values, anti-influenza virus activity stated for both strains together
pIC50: −log10 of the molar value.

molecule	pIC50
CC1(C)C[C@H]2C3=CC[C@@H]4[C@@]5(C)CC[C@H](O)C(C)(C)[C@@H]5CC[C@@]4(C)[C@]3(C)CC[C@@]2(C(=O)O)C[C@H]1OC(=O)/C=C/c1ccccc1 [21-cinnamoyloxy-oleanolic acid]	4.96 to 5.15

====

System: H3N2 influenza virus A/Hong Kong/68 (HK/68)
Assay: CPE inhibition assay with HK/68 in MDCK cells
Type: cell-based
Settings: CC50 in MDCK cells / IC50 HK/68
measure name: selectivity index IAV HK/68 [CC50/IC50]

smiles record	measure name	test value
C[C@H]1O[C@@H](O[C@H]2[C@H](O)[C@@H](O[C@@H]3OC[C@@H](O)[C@H](O)[C@H]3O)[C@H](O[C@H]3[C@H](O)C[C@]4(C)[C@H]5CC=C6[C@@H]7CC(C)(C)[C@H](OC(=O)/C=C/c8ccccc8)C[C@]7(C(=O)O)CC[C@@]6(C)[C@]5(C)CC[C@H]4C3(C)C)O[C@@H]2CO)[C@@H](O)[C@@H](O)[C@@H]1O	selectivity index IAV HK/68 [CC50/IC50]	3
C=C(C)[C@@H]1CC[C@]2(C(=O)O)CC[C@]3(C)[C@H](CC[C@@H]4[C@@]5(C)C[C@@H](O)[C@H](O[C@@H]6O[C@H](CO)[C@@H](O[C@@H]7O[C@H](C)[C@@H](O)[C@H](O)[C@@H]7O)[C@H](O)[C@H]6O[C@@H]6OC[C@@H](O)[C@H](O)[C@H]6O)C(C)(C)[C@@H]5CC[C@]43C)[C@@H]12	selectivity index IAV HK/68 [CC50/IC50]	11
C[C@H]1O[C@H](O[C@H]2[C@H](O[C@H]3[C@H](O[C@H]4CC[C@]5(C)[C@H]6CC=C7[C@@H]8CC(C)(C)[C@H](OC(=O)/C=C/c9ccccc9)C[C@]8(C(=O)O)CC[C@@]7(C)[C@]6(C)CC[C@H]5C4(C)C)OC[C@@H](O)[C@@H]3O)OC[C@@H](O)[C@@H]2O)[C@@H](O)[C@@H](O)[C@@H]1O	selectivity index IAV HK/68 [CC50/IC50]	31
C[C@H]1O[C@@H](O[C@H]2[C@H](O)[C@@H](O[C@@H]3OC[C@@H](O)[C@H](O)[C@H]3O)[C@H](O[C@H]3[C@H](O)C[C@]4(C)[C@H]5CC=C6[C@@H]7CC(C)(C)CC[C@]7(C(=O)O)CC[C@@]6(C)[C@]5(C)CC[C@H]4C3(C)C)O[C@@H]2CO)[C@@H](O)[C@@H](O)[C@@H]1O	selectivity index IAV HK/68 [CC50/IC50]	9
